- target: Angiotensin I Converting Enzyme (ACE) (Homo sapiens, UniProt P12821)
- Sequence (P12821 30-1306, species assumed): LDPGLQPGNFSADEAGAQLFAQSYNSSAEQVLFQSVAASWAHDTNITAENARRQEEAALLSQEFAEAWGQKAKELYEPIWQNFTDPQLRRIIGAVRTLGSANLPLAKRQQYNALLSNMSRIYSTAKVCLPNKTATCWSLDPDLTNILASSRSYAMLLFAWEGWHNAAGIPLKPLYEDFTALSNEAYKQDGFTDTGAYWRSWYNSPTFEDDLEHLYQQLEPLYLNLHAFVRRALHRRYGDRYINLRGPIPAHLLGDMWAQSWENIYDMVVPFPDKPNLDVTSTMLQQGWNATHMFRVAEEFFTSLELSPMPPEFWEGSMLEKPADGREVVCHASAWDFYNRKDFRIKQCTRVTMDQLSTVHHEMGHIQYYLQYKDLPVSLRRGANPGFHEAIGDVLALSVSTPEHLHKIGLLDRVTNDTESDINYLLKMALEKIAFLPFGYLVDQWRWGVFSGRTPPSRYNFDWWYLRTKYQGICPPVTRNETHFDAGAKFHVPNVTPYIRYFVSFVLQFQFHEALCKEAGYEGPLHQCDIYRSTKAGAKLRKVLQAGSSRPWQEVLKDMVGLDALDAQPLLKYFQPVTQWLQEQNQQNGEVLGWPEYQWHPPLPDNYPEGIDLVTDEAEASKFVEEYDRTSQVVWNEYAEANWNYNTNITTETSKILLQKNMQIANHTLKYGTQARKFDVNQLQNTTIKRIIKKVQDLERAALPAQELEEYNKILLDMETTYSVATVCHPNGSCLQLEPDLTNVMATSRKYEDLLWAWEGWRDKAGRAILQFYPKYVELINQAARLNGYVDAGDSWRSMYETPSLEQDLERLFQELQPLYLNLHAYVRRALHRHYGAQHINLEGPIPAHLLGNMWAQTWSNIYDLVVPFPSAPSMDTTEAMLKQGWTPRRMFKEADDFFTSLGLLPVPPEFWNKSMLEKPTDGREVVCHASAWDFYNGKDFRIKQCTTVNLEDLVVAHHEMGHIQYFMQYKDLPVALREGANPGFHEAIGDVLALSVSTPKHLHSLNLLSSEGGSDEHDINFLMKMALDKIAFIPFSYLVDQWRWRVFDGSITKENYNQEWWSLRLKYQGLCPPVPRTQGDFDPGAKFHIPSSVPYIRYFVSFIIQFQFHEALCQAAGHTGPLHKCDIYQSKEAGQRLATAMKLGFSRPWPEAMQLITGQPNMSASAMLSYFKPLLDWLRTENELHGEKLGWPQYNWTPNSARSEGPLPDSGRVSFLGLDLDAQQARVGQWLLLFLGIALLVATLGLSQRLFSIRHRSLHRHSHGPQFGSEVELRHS
- method_summary: Inhibition of Angiotensin I Converting Enzyme (ACE), HHL substrate, hippuric acid colorimetry (modified Cushman method)
- Assay type: biochemical
- condition_context: Concentration 1 μM, 37°C for one hour, pH 8.3, read-out: Inhibitory Activity on ACE (%)
Where a name gives a salt, the structure may show the parent alone.
readout: inhibition at 1 µM (%)

CCOC(=O)C(CCc1ccccc1)NC(C)C(=O)N(CC(=O)O)C1CC2CCC1C2 (stereo not drawn) [Example 17, hydrobromide] ... 78
CCOC(=O)C(CCc1ccccc1)N[C@@H](C)C(=O)N(CC(=O)O)C1C2CC3CC(C2)CC1C3 (stereo partly drawn) [Example 19, hydrobromide] ... 73
CCOC(=O)C(CCc1ccccc1)N[C@@H](C)C(=O)N(CC(=O)O)C1CCCCC1.Cl (stereo partly drawn) [Example 2, hydrochloride] ... 64
C[C@H](NC(CCc1ccccc1)C(=O)O)C(=O)N(CC(=O)O)C1CCCC1 (stereo partly drawn) ... 93
CCCCOC(=O)C(CCc1ccccc1)N[C@@H](C)C(=O)N(CC(=O)O)C1CCCCCC1 (stereo partly drawn) [Example 7, hydrochloride] ... 88
CCOC(=O)C(CCc1ccccc1)N[C@@H](C)C(=O)N(CC(=O)O)C1CCCC1.Cl (stereo partly drawn) [Example 1, hydrochloride] ... 84

Each recorded value in this set is attributed to patent EP0057998B1.
